Quick list: Residual turnover [%] per entry.
Test system: HPPD polypeptides
procedure details: coupled HPPD activity assay: turnover and residual turnover in crude extracts
Type: biochemical, Pseudomonas fluorescens
conditions: 100 μM Cmpd. 1; signal change with inhibitor divided by signal change without inhibitor
recorded endpoint: Residual turnover [%]

molecule	recorded endpoint	test result
70 (protein, mutant HPPD polypeptide) MADLYENPMGLMGFEFIEFASPTPGTLEPIFEIMGFTKVATHRSKNVHLYRQGEINLILNNEPNSIASYFAAEHGPSVCGMAFRVKDSQKAYNRALELGAQPIHIDTGPMELNLPAIKGIGGAPLYLIDRFGEGSSIYDIDFVYLEGVERNPVGAGLKVIDHLTHNVYRGRMVYWANFYEKLFNFREARYFDIKGEYTGLTSKAMSAPDGMIKIPLNEESSKGAGQIEEFLMQFNGEGIQHVAFLTDDLVKTWDALKKIGMRFMTAPADSYYEMLEGRLPDHGEPVDQLQARGILLDGSSVEGDKRLLLQIFSEQLMGPVFFEFIQRKGDDGFGPHSFKVLFEQMERDQVRRGVLTAD	Residual turnover [%]	71%
42 (protein, mutant HPPD polypeptide) MADLYENPMGLMGFEFIEFASPTPGTLEPIFEIMGFTKVATHRSKNVHLYRQGEINLILNNEPNSIASYFAAEHGPSVCGMAFRVKDSQKAYNRALELGAQPIHIDTGPMELNLPAIKGIGGAPLYLIDRFGEGSSIYDIDFVYLEGVERNPVGAGLKVIDHLTHNVYRGRMVYWANFYEKLFNFREARYFDIKGEYTGLTSKAMSAPDGMIRIPLNEESSKGAGQIEEFLMQFNGEGIQHVAFLTDDLVKTWDALKKIGMRFMTAPSDEYYEMLEGRLPDHGEPVDQLQARGILLDGSSVEGDKRLLLQIFSETLMGPVFFEFIQRKGDDGFGPHSFKVLFESVERDQVRRGVLTAD	Residual turnover [%]	40%
